- System: Dehydropeptidase-I (DHP-I)
- Assay Remarks: Dehydropeptidase-I susceptibility (method of Kropp et al.)
- Type: in vitro ADME
- Stated Conditions: relative to thienamycin (=1.0)
Outcome Measure: DHP-I susceptibility
Give only the figure.

# Compound, Readout Number
data = [
    ("C[C@@H](O)[C@H]1C(=O)N2C(C(=O)O)=C(COC(=O)Nc3ccccc3)[C@H](C)[C@H]12 [Example 6]", 1.35),
    ("C[C@@H](O)[C@H]1C(=O)N2C(C(=O)O)=C(COC(=O)N(C)C)[C@H](C)[C@H]12 [Example 7]", 0.29),
    ("C[C@@H](O)[C@H]1C(=O)N2C(C(=O)O)=C(CN)[C@H](C)[C@H]12 [Example 9]", 0.06),
]

Alright, here's another compound for you.
Ask: Request the reported DHP-I susceptibility associated with CC(=O)OCC1=C(C(=O)O)N2C(=O)[C@H]([C@@H](C)O)[C@H]2[C@H]1C [Example 2]
Reply: 0.52

====

- System: S. aureus
- Assay Remarks: Agar disc-diffusion assay, relative antibacterial potency
- Type: cell-based
- Stated Conditions: relative to thienamycin (=1.0)
- Protocol: The antibacterial activities of the compounds of this invention illustrated in the examples were determined using the following method. Antibacterial activities were determined by the disc-diffusion assay described by Bauer et al., Amer. […] For maximum reproducibility, the inner, completely clear region of the zone of inhibition was measured. […] Ratios of the geometric means of the inhibitory concentrations to that of thienamycin were determined for each test compound. […]
Outcome Measure: Relative Antibacterial Potencies

# Smiles Entry, Relative Antibacterial Potencies
records = [
    ("C[C@@H](O)[C@H]1C(=O)N2C(C(=O)O)=C(COC(=O)N(C)C)[C@H](C)[C@H]12", 1.4),
    ("CC(=O)OCC1=C(C(=O)O)N2C(=O)[C@H]([C@@H](C)O)[C@H]2[C@H]1C", 0.7),
    ("C[C@@H](O)[C@H]1C(=O)N2C(C(=O)O)=C(CN=[N+]=[N-])[C@H](C)[C@H]12", 1.4),
]

Ask: Request the reported Relative Antibacterial Potencies associated with `C[C@@H](O)[C@H]1C(=O)N2C(C(=O)O)=C(CN)[C@H](C)[C@H]12`
Reply: 0.6

Ask: Request the reported Relative Antibacterial Potencies associated with `C[C@@H](O)[C@H]1C(=O)N2C(C(=O)O)=C(COC(=O)Nc3ccccc3)[C@H](C)[C@H]12`
Reply: 1.2

Ask: Request the reported Relative Antibacterial Potencies associated with `C[C@@H](O)[C@H]1C(=O)N2C(C(=O)[O-])=C(COC(=O)NCC[n+]3ccccc3)[C@H](C)[C@H]12`
Reply: 0.87

Ask: Request the reported Relative Antibacterial Potencies associated with `C[C@@H](O)[C@H]1C(=O)N2C(C(=O)O)=C(COC(N)=O)[C@H](C)[C@H]12`
Reply: 0.9

Ask: Request the reported Relative Antibacterial Potencies associated with `C[C@@H](O)[C@H]1C(=O)N2C(C(=O)O)=C(CO)[C@H](C)[C@H]12`
Reply: 0.4

Ask: Request the reported Relative Antibacterial Potencies associated with `CNC(=O)OCC1=C(C(=O)O)N2C(=O)[C@H]([C@@H](C)O)[C@H]2[C@H]1C`
Reply: 0.8

====

- System: Dehydropeptidase-I (DHP-I)
- Assay Remarks: Dehydropeptidase-I susceptibility (method of Kropp et al.)
- Assay type: in vitro ADME
- Stated Conditions: relative to thienamycin (=1.0)
- Procedure: Antibacterial compounds of Formula I are of the broad class known as carbapenems or 1-carbadethiapenems. Certain of these carbapenems are susceptible to attack by a renal enzyme known as dehydropeptidase (DHP). This attack or degradation may reduce the efficacy of the carbapenem antibacterial agent. […] Antibacterial potencies were determined using standard agar disc diffusion assays and are reported relative to thienamycin (=1.0). […]
Below is a list of entries, each paired with its recorded DHP-I susceptibility value.

# Smiles Entry, DHP-I susceptibility
measured = [
    ("C[C@@H](O)[C@H]1C(=O)N2C(C(=O)O)=C(COC(N)=O)[C@H](C)[C@H]12", 0.39),
    ("C[C@@H](O)[C@H]1C(=O)N2C(C(=O)[O-])=C(COC(=O)NCC[n+]3ccccc3)[C@H](C)[C@H]12", 0.05),
    ("C[C@@H](O)[C@H]1C(=O)N2C(C(=O)O)=C(CN=[N+]=[N-])[C@H](C)[C@H]12", 7.29),
    ("CNC(=O)OCC1=C(C(=O)O)N2C(=O)[C@H]([C@@H](C)O)[C@H]2[C@H]1C", 0.59),
]

Alright, here's another compound for you.
Ask: Request the reported DHP-I susceptibility associated with `C[C@@H](O)[C@H]1C(=O)N2C(C(=O)O)=C(CO)[C@H](C)[C@H]12`
Reply: 0.76

Source of measurements: patent EP0292191A1
